Origin of values: patent US20060153912A1

# assayExplanation: Color stability of 10% strength solutions in water/methanol (1:1), 7 h at 65° C., with and without stabilizer
# Format: physicochemical
# experimentalConditions: 10% strength solution in water/methanol (1:1), no additive
attributeMeasured: Color number Hazen

[
  {
    "molecule": "O=C1O[C@H]([C@@H](O)CO)C(O)=C1O [L-(+)-Ascorbic acid]",
    "attributeMeasured": "Color number Hazen",
    "readoutNumber": 27
  },
  {
    "molecule": "C[N+](C)(C)CCO.[Cl-] [Choline chloride]",
    "attributeMeasured": "Color number Hazen",
    "readoutNumber": 35
  },
  {
    "molecule": "C[N+](C)(C)CCO.O=C([O-])C(O)C(O)C(=O)O (stereo not shown) [Choline bitartrate]",
    "attributeMeasured": "Color number Hazen",
    "readoutNumber": 32
  },
  {
    "molecule": "O=C1O[C@H]([C@@H](O)CO)C([O-])=C1O.[Na+] [Sodium ascorbate]",
    "attributeMeasured": "Color number Hazen",
    "readoutNumber": 31
  }
]

----------
# assayExplanation: Color stability of 50% strength water/methanol solutions stirred at reflux (65° C.) in air, Gardner/Hazen color number
# experimentalConditions: 50% choline ascorbate solution, additive 1% by weight, reaction time 4 h

[
  {
    "compound": "OP(O)O",
    "Color number Hazen": 163
  },
  {
    "compound": "CC(=O)N[C@@H](CS)C(=O)O",
    "Color number Hazen": 162
  },
  {
    "compound": "N[C@@H](CS)C(=O)O",
    "Color number Hazen": 35
  },
  {
    "compound": "O=C(O)CCCC[C@@H](S)CCS (racemic) [Dihydrolipoic acid]",
    "Color number Hazen": 53
  },
  {
    "compound": "OB(O)c1ccccc1",
    "Color number Hazen": 589
  },
  {
    "compound": "N[C@@H](CCC(=O)N[C@@H](CS)C(=O)NCC(=O)O)C(=O)O",
    "Color number Hazen": 122
  }
]

----------
# assayExplanation: Color stability of 50% strength water/methanol solutions stirred at reflux (65° C.) in air, Gardner/Hazen color number
# experimentalConditions: 50% choline ascorbate solution, additive 1% by weight, reaction time 4 h
Listed next: entries and their corresponding Color number Gardner.

[
  {
    "compound": "OP(O)O",
    "Color number Gardner": 0.7
  },
  {
    "compound": "CC(=O)N[C@@H](CS)C(=O)O",
    "Color number Gardner": 0.9
  },
  {
    "compound": "N[C@@H](CCC(=O)N[C@@H](CS)C(=O)NCC(=O)O)C(=O)O",
    "Color number Gardner": 0.4
  },
  {
    "compound": "N[C@@H](CS)C(=O)O",
    "Color number Gardner": 0.1
  },
  {
    "compound": "OB(O)c1ccccc1",
    "Color number Gardner": 2.7
  },
  {
    "compound": "O=C(O)CCCC[C@@H](S)CCS (racemic) [Dihydrolipoic acid]",
    "Color number Gardner": 0.2
  }
]
